The measurements presented in this section are drawn from patent US11840551B2.

- target or system: UniProt:Q96QP1
- assay remarks: IL8 secretion in HEK293 cells (IL8 ELISA) as indicator of ALPK1 activation
- conditions: without FBS, serial dilutions, 4 hours
measured property: IL8 secretion in HEK293 cells

Worked examples follow.
CC(=O)OC[C@H](F)[C@H]1O[C@@H](OP(=O)(O)OP(=O)(O)OC[C@H]2O[C@@H](n3cnc4c(N)ncnc43)[C@H](O)[C@@H]2O)[C@@H](OC(C)=O)[C@@H](OC(C)=O)[C@@H]1OC(C)=O
activate IL8 secretion
CC(=O)OC[C@H]1O[C@@H](OP(=O)(O)OP(=O)(O)OC[C@H]2O[C@@H](n3cnc4c(N)ncnc43)[C@H](O)[C@@H]2O)[C@@H](OC(C)=O)[C@@H](OC(C)=O)[C@@H]1OC(C)=O
increased IL8 secretion
COC1C(OC)[C@@H](COP(=O)(O)OP(=O)(O)O[C@@H]2OC([C@H](O)CO)[C@@H](O)C(O)C2O)O[C@H]1n1cnc2c(N)ncnc21 (stereo in doubt)
increased IL8 secretion
CC(=O)OC[C@@H](OC(C)=O)[C@H]1O[C@@H](OP(=O)(O)OP(=O)(O)OC[C@@]2(F)O[C@@H](n3cnc4c(N)ncnc43)[C@H](O)[C@@H]2O)[C@@H](OC(C)=O)[C@@H](OC(C)=O)[C@@H]1OC(C)=O
activate IL8 secretion

As a next step, examine the compound that follows.
Prompt: Data request, read-out IL8 secretion in HEK293 cells, for Nc1ncnc2c1ncn2[C@@H]1O[C@H](COP(=O)(O)OP(=O)(O)O[C@@H]2OC([C@@H](O)CO)[C@@H](O)C(O)C2O)C(O)C1O (stereo in doubt)
Completion: increased IL8 secretion

----------
- target or system: ALPK1 (Homo sapiens, UniProt Q96QP1)
- Sequence (Q96QP1 whole entry): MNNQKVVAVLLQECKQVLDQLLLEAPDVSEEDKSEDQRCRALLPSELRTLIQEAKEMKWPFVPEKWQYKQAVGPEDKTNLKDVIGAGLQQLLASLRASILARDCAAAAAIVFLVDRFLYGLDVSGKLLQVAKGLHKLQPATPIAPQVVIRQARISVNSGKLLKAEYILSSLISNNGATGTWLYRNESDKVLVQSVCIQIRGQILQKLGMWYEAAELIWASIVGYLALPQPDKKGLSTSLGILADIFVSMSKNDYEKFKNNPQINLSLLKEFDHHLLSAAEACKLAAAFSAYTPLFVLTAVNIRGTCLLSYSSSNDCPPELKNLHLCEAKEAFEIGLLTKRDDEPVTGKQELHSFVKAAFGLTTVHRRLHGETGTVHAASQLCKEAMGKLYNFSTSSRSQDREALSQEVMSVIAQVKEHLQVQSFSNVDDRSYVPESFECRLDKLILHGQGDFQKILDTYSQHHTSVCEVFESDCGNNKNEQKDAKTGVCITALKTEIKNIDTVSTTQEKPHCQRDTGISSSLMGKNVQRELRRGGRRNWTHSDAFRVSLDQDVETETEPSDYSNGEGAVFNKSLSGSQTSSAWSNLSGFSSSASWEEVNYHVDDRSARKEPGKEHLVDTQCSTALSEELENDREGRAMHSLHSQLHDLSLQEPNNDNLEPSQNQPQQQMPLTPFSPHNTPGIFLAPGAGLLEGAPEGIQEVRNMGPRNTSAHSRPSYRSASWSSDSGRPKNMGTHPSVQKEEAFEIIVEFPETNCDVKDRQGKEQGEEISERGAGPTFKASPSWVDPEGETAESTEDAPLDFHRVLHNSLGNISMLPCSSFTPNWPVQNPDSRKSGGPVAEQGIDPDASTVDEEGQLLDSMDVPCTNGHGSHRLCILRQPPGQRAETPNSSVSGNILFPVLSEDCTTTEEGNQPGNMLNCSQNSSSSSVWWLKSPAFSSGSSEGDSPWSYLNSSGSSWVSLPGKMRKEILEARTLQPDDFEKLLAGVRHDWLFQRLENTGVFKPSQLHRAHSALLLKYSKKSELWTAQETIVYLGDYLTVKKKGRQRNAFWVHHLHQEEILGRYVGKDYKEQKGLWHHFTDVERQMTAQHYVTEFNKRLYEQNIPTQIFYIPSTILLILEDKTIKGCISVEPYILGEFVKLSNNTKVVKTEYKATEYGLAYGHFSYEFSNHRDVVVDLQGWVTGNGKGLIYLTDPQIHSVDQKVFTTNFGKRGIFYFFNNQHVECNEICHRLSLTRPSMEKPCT
- assay remarks: IL8 secretion in HEK293 cells (IL8 ELISA) as indicator of ALPK1 activation
- conditions: with 10% FBS, serial dilutions, 4 hours
measured property: IL8 secretion in HEK293 cells

CC(=O)OC[C@H](OC(C)=O)[C@H]1O[C@@H](OP(=O)(O)OP(=O)(O)OC[C@H]2O[C@@H](n3cnc4c(N)ncnc43)[C@H](O)[C@@H]2O)[C@@H](OC(C)=O)[C@@H](OC(C)=O)[C@@H]1OC(C)=O [Compound 21]
increased IL8 secretion
CC(=O)OC[C@@H](OC(C)=O)[C@H]1O[C@@H](OP(=O)(O)OP(=O)(O)OC[C@H]2O[C@@H](n3cnc4c(N)ncnc43)[C@H](O)[C@H]2F)[C@@H](OC(C)=O)[C@@H](OC(C)=O)[C@@H]1OC(C)=O [Compound 17]
increased IL8 secretion
Nc1ncnc2c1ncn2[C@@H]1O[C@H](COP(=O)(O)OP(=O)(O)O[C@@H]2OC([C@@H](O)CO)[C@@H](O)C(O)C2O)C(O)C1O (stereo in doubt) [Compound 22]
increased IL8 secretion

----------
- target or system: ALPK1 (Homo sapiens, UniProt Q96QP1)
- assay remarks: IL8 secretion in HEK293 cells (IL8 ELISA) as indicator of ALPK1 activation
- conditions: with 10% FBS, serial dilutions, 4 hours
measured property: IL8 secretion in HEK293 cells

CC(=O)OC[C@@H](OC(C)=O)C1O[C@@H](OP(=O)(O)OP(O)(=S)OC[C@H]2O[C@@H](n3cnc4c(N)ncnc43)C(O)C2O)C(OC(C)=O)C(OC(C)=O)[C@@H]1OC(C)=O (some centres unmarked) [Compound 15]
activate IL8 secretion
COC1C(OC)[C@@H](COP(=O)(O)OP(=O)(O)O[C@@H]2OC([C@H](O)CO)[C@@H](O)C(O)C2O)O[C@H]1n1cnc2c(N)ncnc21 (stereo in doubt) [Compound 14]
increased IL8 secretion
CC(=O)OC[C@H]1O[C@@H](OP(=O)(O)OP(=O)(O)OC[C@H]2O[C@@H](n3cnc4c(N)ncnc43)[C@H](O)[C@@H]2O)[C@@H](OC(C)=O)[C@@H](OC(C)=O)[C@@H]1OC(C)=O [Compound 5]
increased IL8 secretion
CC(=O)OC[C@H](F)[C@H]1O[C@@H](OP(=O)(O)OP(=O)(O)OC[C@H]2O[C@@H](n3cnc4c(N)ncnc43)[C@H](O)[C@@H]2O)[C@@H](OC(C)=O)[C@@H](OC(C)=O)[C@@H]1OC(C)=O [Compound 3]
activate IL8 secretion

As a next step, examine the molecule that follows.
Prompt: Data request, read-out IL8 secretion in HEK293 cells, for Nc1ncnc2c1ncn2[C@@H]1O[C@H](COP(O)(=S)OP(=O)(O)O[C@@H]2OC([C@H](O)CO)[C@@H](O)[C@H](O)C2O)[C@H](O)C1O (some centres unmarked) [Compound 16]
Completion: increased IL8 secretion
